assay: Selectivity ratio, ratio of IC50 for antiproliferative activity against human HT-29 cells to IC50 for antiproliferative activity against human MCF7 cells expressing CYP1A1; assay type: functional
metric: Ratio IC50

Solved cases (2 shown):
- compound: "CCCCCCN1CCN(c2ccc(S(=O)(=O)Oc3cccc(Cl)c3)cc2)C1=O"
  Ratio IC50: ">1.4"
- compound: "COc1ccc(/C=C\\c2cc(OC)c(OC)c(OC)c2)cc1O [COMBRETASTATIN A4]"
  Ratio IC50: 0.66

Next, consider the following compound.
Lookup: Recorded Ratio IC50 for CCCCCN1CCN(c2ccc(S(=O)(=O)Oc3cc(F)cc(F)c3)cc2)C1=O , please?
Found: >13

* * *

test: Stability in mouse liver microsomes assessed as half life incubated for 60 mins by HPLC analysis; format: ADME, Microsome
Threshold rule: half-life greater than or equal to 40 min is true (1); below that, false (0).

For orientation, consider the following solved cases.
- mol smiles: "CCCCCN1CCN(c2ccc(S(=O)(=O)Oc3cccc(Cl)c3)cc2)C1=O"
  group: "true (1)"
- mol smiles: "CCCCN1CCN(c2ccc(S(=O)(=O)Oc3cc(Cl)cc(Cl)c3)cc2)C1=O"
  group: "false (0)"
- mol smiles: "CCCCCN1CCN(c2ccc(S(=O)(=O)Oc3cc(OC)cc(OC)c3)cc2)C1=O"
  group: "true (1)"

Lookup: Check the entry CCCCCN1CCN(c2ccc(S(=O)(=O)Oc3cc(Cl)cc(Cl)c3)cc2)C1=O : does half-life equal or exceed 40 min?
Found: true (1)

* * *

test system: M21; assay: Antiproliferative activity against human M21 cells assessed as cell growth inhibition incubated for 48 hrs by sulforhodamine B assay; format: functional, cell-based; conditions: M21, 48 h
pIC50: −log10 of the molar value.
metric: pIC50

Solved cases (5 shown):
- molecule: "CCCCCN1CCN(c2ccc(S(=O)(=O)Oc3ccc(OC)cc3)cc2)C1=O"
  target system: "M21"
  reading: "< 4.90"
- molecule: "CCCCCN1CCN(c2ccc(S(=O)(=O)Oc3cccc(OC)c3)cc2)C1=O"
  target system: "M21"
  reading: "< 4.90"
- molecule: "CCCCCCN1CCN(c2ccc(S(=O)(=O)Oc3ccccc3)cc2)C1=O"
  target system: "M21"
  reading: "< 5.60"
- molecule: "CCCCCN1CCN(c2ccc(S(=O)(=O)Oc3cc(F)cc(F)c3)cc2)C1=O"
  target system: "M21"
  reading: "< 4.90"
- molecule: "CCCCCCN1CCN(c2ccc(S(=O)(=O)Oc3cc(Cl)cc(Cl)c3)cc2)C1=O"
  target system: "M21"
  reading: "< 5.90"

Next, consider the following molecule.
Lookup: Recorded pIC50 for CCCCCN1CCN(c2ccc(S(=O)(=O)Oc3cc(OC)cc(OC)c3)cc2)C1=O , please?
Found: < 4.90

* * *

system: MCF7; assay: Antiproliferative activity against human MCF7 cells expressing CYP1A1 assessed as cell growth inhibition incubated for 48 hrs by sulforhodamine B assay; type: functional, cell-based; conditions: MCF7, 48 h
metric: IC50

Lookup: Recorded IC50 for CCCCCCCCN1CCN(c2ccc(S(=O)(=O)Oc3ccc(OC)c(OC)c3)cc2)C1=O , please?
Found: > 1250 nM

Lookup: Recorded IC50 for CCCCCCCCN1CCN(c2ccc(S(=O)(=O)Oc3cccc(Cl)c3)cc2)C1=O , please?
Found: > 1250 nM

Lookup: Recorded IC50 for CCCCCCN1CCN(c2ccc(S(=O)(=O)Oc3ccc(OC)cc3)cc2)C1=O , please?
Found: > 1250 nM

Lookup: Recorded IC50 for CCCCCCN1CCN(c2ccc(S(=O)(=O)Oc3cc(OC)cc(OC)c3)cc2)C1=O , please?
Found: > 1250 nM

Lookup: Recorded IC50 for CCCCCN1CCN(c2ccc(S(=O)(=O)Oc3ccc(OC)cc3)cc2)C1=O , please?
Found: > 12500 nM

Lookup: Recorded IC50 for CCCCCN1CCN(c2ccc(S(=O)(=O)Oc3ccccc3OC)cc2)C1=O , please?
Found: > 12500 nM

* * *

test system: MCF7; assay: Antiproliferative activity against human MCF7 cells expressing CYP1A1 assessed as cell growth inhibition incubated for 48 hrs by sulforhodamine B assay; assay type: functional, cell-based; settings: MCF7, 48 h
pIC50: −log10 of the molar value.
Below, each entry is listed alongside its reported pIC50.

- mol smiles: "CCCCCCCCN1CCN(c2ccc(S(=O)(=O)Oc3cc(Cl)cc(Cl)c3)cc2)C1=O"
  pIC50: "< 5.90"
- mol smiles: "CCCCCCN1CCN(c2ccc(S(=O)(=O)Oc3cccc(Br)c3)cc2)C1=O"
  pIC50: "< 5.90"
- mol smiles: "CCCCCCN1CCN(c2ccc(S(=O)(=O)Oc3ccc(OC)c(OC)c3)cc2)C1=O"
  pIC50: "< 5.90"

Lookup: Recorded pIC50 for CCCCCCN1CCN(c2ccc(S(=O)(=O)Oc3ccccc3OC)cc2)C1=O , please?
Found: < 5.60

Lookup: Recorded pIC50 for CCCCCCN1CCN(c2ccc(S(=O)(=O)Oc3cccc(OC)c3)cc2)C1=O , please?
Found: < 5.60

Lookup: Recorded pIC50 for CCCCCCCCN1CCN(c2ccc(S(=O)(=O)Oc3cccc(OC)c3)cc2)C1=O , please?
Found: < 5.60

* * *

tested on: MCF7; test: Antiproliferative activity against human MCF7 cells expressing CYP1A1 assessed as cell growth inhibition incubated for 48 hrs by sulforhodamine B assay; assay type: functional, cell-based; details: MCF7, 48 h
metric: IC50

- mol smiles: "CCCCCCCCN1CCN(c2ccc(S(=O)(=O)Oc3cc(OC)c(OC)c(OC)c3)cc2)C1=O"
  IC50: "> 1250 nM"
- mol smiles: "CCCCCCCCN1CCN(c2ccc(S(=O)(=O)Oc3ccccc3OC)cc2)C1=O"
  IC50: "> 2500 nM"
- mol smiles: "CCCCCCN1CCN(c2ccc(S(=O)(=O)Oc3ccc(F)c(F)c3)cc2)C1=O"
  IC50: "> 2500 nM"
- mol smiles: "CCCCCN1CCN(c2ccc(S(=O)(=O)Oc3ccc(F)c(F)c3)cc2)C1=O"
  IC50: "> 12500 nM"

Next, consider the following compound.
Lookup: MCF7 / IC50 / CCCCCCCCN1CCN(c2ccc(S(=O)(=O)Oc3cccc(F)c3)cc2)C1=O : value?
Found: > 1250 nM

* * *

test system: HT-1080; test: Antiproliferative activity against human HT-1080 cells transfected with empty vector assessed as cell growth inhibition incubated for 48 hrs by sulforhodamine B assay; assay type: functional, cell-based; details: HT-1080, 48 h
metric: IC50

Solved cases (2 shown):
- mol smiles: "CCCCCN1CCN(c2ccc(S(=O)(=O)Oc3cc(Cl)cc(Cl)c3)cc2)C1=O"
  target system: "HT-1080"
  IC50: "> 5 µM"
- mol smiles: "CCCCCN1CCN(c2ccc(S(=O)(=O)Oc3cccc(I)c3)cc2)C1=O"
  target system: "HT-1080"
  IC50: "> 12.5 µM"

Lookup: Recorded IC50 for CCCCCN1CCN(c2ccc(S(=O)(=O)Oc3cccc(Cl)c3)cc2)C1=O , please?
Found: > 12.5 µM

* * *

Below, each entry is listed alongside its reported IC50.
tested on: MCF7; test: Antiproliferative activity against human MCF7 cells expressing CYP1A1 assessed as cell growth inhibition incubated for 48 hrs by sulforhodamine B assay; type: functional, cell-based; settings: MCF7, 48 h

Solved cases (5 shown):
- mol smiles: "CCCCCCCCN1CCN(c2ccc(S(=O)(=O)Oc3cccc(Br)c3)cc2)C1=O"
  IC50: "> 1250 nM"
- mol smiles: "CCCCCCCCN1CCN(c2ccc(S(=O)(=O)Oc3ccc(OC)cc3)cc2)C1=O"
  IC50: "> 1250 nM"
- mol smiles: "CCCCCCCCN1CCN(c2ccc(S(=O)(=O)Oc3ccc(F)c(F)c3)cc2)C1=O"
  IC50: "> 1250 nM"
- mol smiles: "CCCCCCCCN1CCN(c2ccc(S(=O)(=O)Oc3ccccc3)cc2)C1=O"
  IC50: "> 1250 nM"
- mol smiles: "CCCCCCCCN1CCN(c2ccc(S(=O)(=O)Oc3cc(F)cc(F)c3)cc2)C1=O"
  IC50: "> 1250 nM"

Lookup: Recorded IC50 for CCCCCN1CCN(c2ccc(S(=O)(=O)Oc3cc(Br)cc(Br)c3)cc2)C1=O , please?
Found: > 500 nM

* * *

test: Stability in mouse liver microsomes assessed as half life incubated for 60 mins by HPLC analysis; type: ADME, Microsome
metric: half-life (min)
Please respond with the number in min and leave the unit unwritten.

- mol smiles: "CCCCN1CCN(c2ccc(S(=O)(=O)Oc3cc(OC)c(OC)c(OC)c3)cc2)C1=O"
  metric: "half-life"
  reading: 18
- mol smiles: "CCCCCN1CCN(c2ccc(S(=O)(=O)Oc3cc(OC)c(OC)c(OC)c3)cc2)C1=O"
  metric: "half-life"
  reading: 18.9

Next, consider the following compound.
Lookup: Recorded half-life for CCCCN1CCN(c2ccc(S(=O)(=O)Oc3cc(OC)cc(OC)c3)cc2)C1=O , please?
Found: 10.5
